Data origin: patent US11254663B2

ASSAY_TARGET: FXR (Homo sapiens (Human))
TEST_METHOD_NOTES: FXR EC50 (FXR agonist potency reported with each Example)
Format: cell-based
Assign labels as follows, please: true (1) for EC50 below 700 nM; false (0) for EC50 equal to or exceeding 700 nM.

Cc1cc(C23CCC(CN(C(=O)C4CCC(F)(F)C4)c4cccc(-c5nc(C6CC6)no5)c4)(CC2)CC3)ccn1 (stereo not shown)
false (0)
CC(N(C(=O)C12CC(F)(C1)C2)c1cccc(-c2cnc(C3CC3)o2)c1)C12CCC(c3nc(C4CC4)no3)(CC1)CC2 (single isomer, unassigned) [Example 215]
true (1)
Cc1csc(-c2cccc(N(CC34CCC(c5nc(C6CC6)no5)(CC3)CC4)C(=O)C34CC(F)(C3)C4)c2)n1
true (1)
Cc1noc(-c2cccc(N(CC34CCC(c5ccc(C6CC6)cc5)(CC3)CC4)C(=O)C(C)C)c2)n1
false (0)
O=C(N(CC12CCC(c3noc(C4(C(F)(F)F)CC4)n3)(CC1)CC2)c1cccc(-c2nc(C3CC3)no2)c1)C12CC(F)(C1)C2
true (1)

Exercise: Consider the compound `Cc1cnc(C23CCC(CN(c4cccc(-c5nc(C(F)F)co5)c4)C(=O)[C@H]4C[C@](O)(C(F)(F)F)C4)(CC2)CC3)o1` . Is its EC50 strictly less than 700 nM?
Solution: true (1)

Exercise: Consider the compound `COc1cc(-c2cccc(N(CC34CCC(c5ccc(C(C)(C)C#N)cc5)(CC3)OC4)C(=O)C3CCCC3)c2)ccn1` . Is its EC50 strictly less than 700 nM?
Solution: false (0)

Exercise: Consider the compound `O=C(N(CC12CCC(c3nc(C4CC4)no3)(CC1)OC2)c1cccc(-c2cc(C3CC3)on2)c1)C12CC(F)(C1)C2` . Is its EC50 strictly less than 700 nM?
Solution: true (1)

Exercise: Consider the compound `COc1cc(-c2cccc(N(CC34CCC(c5nc(C6CC6)no5)(CC3)CC4)C(=O)C34CC(F)(C3)C4)c2)ccn1` . Is its EC50 strictly less than 700 nM?
Solution: true (1)

Exercise: Consider the compound `O=C(C1CC(F)(F)C1)N(CC12CCC(c3nc(C4CC4)no3)(CC1)CC2)c1cccc(-c2cc(C3CC3)on2)c1` . Is its EC50 strictly less than 700 nM?
Solution: true (1)

Exercise: Consider the compound `Cn1cc(-c2cccc(N(CC34CCC(c5nc(C6CC6)no5)(CC3)CC4)C(=O)C3CC(F)(F)C3)c2)nc1C1CC1` . Is its EC50 strictly less than 700 nM?
Solution: false (0)

----------
ASSAY_TARGET: FXR (Homo sapiens (Human), UniProt Q96RI1)
Sequence (Q96RI1 262-486): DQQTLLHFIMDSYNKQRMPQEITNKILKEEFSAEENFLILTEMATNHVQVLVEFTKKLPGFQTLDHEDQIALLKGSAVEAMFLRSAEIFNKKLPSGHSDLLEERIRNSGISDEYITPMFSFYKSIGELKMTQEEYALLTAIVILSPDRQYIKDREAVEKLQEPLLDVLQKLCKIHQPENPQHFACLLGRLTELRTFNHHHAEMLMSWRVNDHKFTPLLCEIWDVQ
TEST_METHOD_NOTES: transient human FXR/Gal4-luciferase reporter assay
Format: cell-based
EXPERIMENTAL_CONDITIONS: Gal4-hFXR fusion construct, HEK293 reporter cells; response relative to 8 μM GW-4064
MEASURED_PROPERTY: pEC50
Notebook: values listed as pEC50 are -log10 of the concentration (mol/L).

COc1ccc(C23CCC(CN(C(=O)C45CC(F)(C4)C5)c4cccc(-c5ccc6nc(C)sc6c5)c4)(CC2)CO3)cc1 [Example 556]
6.09
O=C(N(CC12CCC(c3nc(C4CC4)no3)(CC1)CC2)c1cccc(-c2ccnc(OC3CC3)n2)c1)C12CC(F)(C1)C2 [Example 337]
6.42

We next turn to a different compound, shown below.
Exercise: Quote pEC50 reported for CC(C)(C)c1noc(C23CCC(CN(C(=O)C45CC(F)(C4)C5)c4cccc(-c5cnc(C(F)(F)F)nc5)c4)(CC2)CC3)n1 [Example 366] please.
Solution: 6.34

----------
ASSAY_TARGET: FXR (Homo sapiens (Human))
TEST_METHOD_NOTES: FXR EC50 (FXR agonist potency reported with each Example)
Format: cell-based
MEASURED_PROPERTY: EC50 (µM)
# unit: µM | format: bare number

CC(C)(C)c1noc(C23CCC(CN(C(=O)C45CC(F)(C4)C5)c4cccc(-c5noc(C6CC6)n5)c4)(CC2)CC3)n1
0.0376
O=C(N(CC12CCC(c3nc(C4CC4)no3)(CC1)CC2)c1cccc(-c2noc(C3CC3)n2)c1)C12CC(F)(C1)C2
0.06
CC(C)(C)c1nc(-c2cccc(N(CC34CCC(c5cnc(C(F)(F)F)nc5)(CC3)OC4)C(=O)C34CC(F)(C3)C4)c2)no1
0.828

Exercise: Quote EC50 reported for CC(N(C(=O)C12CC(F)(C1)C2)c1cccc(-c2cnc(C3CC3)o2)c1)C12CCC(c3nc(C4CC4)no3)(CC1)CC2 (single isomer, unassigned) [Example 216] please.
Solution: 0.511

Exercise: Quote EC50 reported for `Cc1cnc(C23CCC(CN(C(=O)C45CC(F)(C4)C5)c4cccc(-c5nc(C6CC6)no5)c4)(CC2)CC3)o1` please.
Solution: 0.082

Exercise: Quote EC50 reported for `Cn1nc(-c2cccc(N(CC34CCC(c5nc(C6CC6)no5)(CC3)CC4)C(=O)C34CC(F)(C3)C4)c2)cc1C1CC1` please.
Solution: 0.247

----------
ASSAY_TARGET: FXR (Homo sapiens (Human), UniProt Q96RI1)
TEST_METHOD_NOTES: transient human FXR/Gal4-luciferase reporter assay
Assay type: cell-based
EXPERIMENTAL_CONDITIONS: Gal4-hFXR fusion construct, HEK293 reporter cells; response relative to 8 μM GW-4064
MEASURED_PROPERTY: EC50 (nM)
# unit: nM | format: bare number

// solved cases for EC50 follow
O=C(N(CC12CCC(c3nc(C4CC4)no3)(CC1)CC2)c1cccc(-c2cc(F)c3nccn3c2)c1)C12CC(F)(C1)C2
887
CC(C)c1noc(C23CCC(CN(C(=O)C45CC(F)(C4)C5)c4cccc(-c5cnc(C(F)(F)F)nc5)c4)(CC2)CC3)n1
184
Cc1nc2ccc(-c3cccc(N(CC45CCC(c6noc(C(C)(C)C)n6)(CC4)CC5)C(=O)C45CC(F)(C4)C5)c3)cc2s1
68
Cc1nc2ccc(-c3cccc(N(CC45CCC(c6noc(C(C)C)n6)(CC4)CC5)C(=O)C45CC(F)(C4)C5)c3)cc2s1
37
CCOc1ncc(-c2cncc(N(CC34CCC(c5noc(C(C)(C)C)n5)(CC3)CC4)C(=O)C34CC(F)(C3)C4)c2)cn1
1100
N#CC1(c2ccc(-c3cccc(N(CC45CCC(c6nc(C7CC7)no6)(CC4)CC5)C(=O)C45CC(F)(C4)C5)c3)cc2)CC1
125
CC(C)Oc1ccc(-c2ccnc(N(CC34CCC(c5noc(C(C)(F)F)n5)(CC3)CC4)C(=O)OC(C)(C)C(F)(F)F)c2)cc1
47
CC(C)(O)c1ccc(-c2cccc(N(CC34CCC(c5nc(C6CC6)no5)(CC3)CC4)C(=O)OC(C)(C)C(F)(F)F)c2)cc1
50

Exercise: Quote EC50 reported for `CC(C)(O)c1ccc(-c2ccnc(N(CC34CCC(c5noc(C(C)(C)F)n5)(CC3)CC4)C(=O)OC(C)(C)C(F)(F)F)c2)cc1` please.
Solution: 31

Exercise: Quote EC50 reported for `Cc1cn2cc(-c3cccc(N(CC45CCC(c6nc(C7CC7)no6)(CC4)CC5)C(=O)C45CC(F)(C4)C5)c3)cc(C)c2n1` please.
Solution: 270

Exercise: Quote EC50 reported for `CC(F)(F)c1nc(C23CCC(CN(C(=O)C45CC(F)(C4)C5)c4ccc(F)c(C5CC5)c4)(CC2)CC3)no1` please.
Solution: 244

Exercise: Quote EC50 reported for `COc1ccc(-c2cccc(N(CC34CCC(c5ccc(C6(C#N)CC6)cc5)(CC3)OC4)C(=O)C34CC(F)(C3)C4)c2)cc1` please.
Solution: 130

Exercise: Quote EC50 reported for `Cc1c(-c2cccc(N(CC34CCC(c5nc(C6CC6)no5)(CC3)CC4)C(=O)C34CC(F)(C3)C4)c2)cn2ncnc2c1C` please.
Solution: 916

Exercise: Quote EC50 reported for `Cc1cnc(-c2cccc(N(CC34CCC(c5noc(C(C)(C)C)n5)(CC3)CC4)C(=O)C34CC(F)(C3)C4)c2)nc1` please.
Solution: 31

Exercise: Quote EC50 reported for `O=C(N(CC12CCC(c3nc(C4CC4)no3)(CC1)CC2)c1cccc(-c2ccc3nncn3c2)c1)C12CC(F)(C1)C2` please.
Solution: 1630

Exercise: Quote EC50 reported for CC(C)(C)c1nc(C23CCC(CN(C(=O)C4CC(O)(C(F)(F)F)C4)c4cccc(-c5ccc(NS(C)(=O)=O)cc5)c4)(CC2)CC3)no1 (stereo not shown) please.
Solution: 922

Exercise: Quote EC50 reported for CC(F)(F)c1nc(C23CCC(CN(C(=O)C4CC(O)(C(F)(F)F)C4)c4cccc(-c5ccc(C(O)C(F)F)cc5)c4)(CC2)CC3)no1 (single isomer, unassigned) [Example 628 (first eluting isomer)] please.
Solution: 92

Exercise: Quote EC50 reported for `CC(C)(C)c1noc(C23CCC(CN(C(=O)C45CC(F)(C4)C5)c4cccc(-c5ccc(NS(=O)(=O)C(F)(F)F)cc5)c4)(CC2)CC3)n1` please.
Solution: 131
